Cited source: PubChem BioAssay (NCI)

The following compounds are listed with their measured growth values.
Tested on: COLO 205 colon
Assay remarks: NCI-60 one-dose screen, 48 h (100 = growth as untreated, 0 = no growth, -100 = all killed)
Setup conditions: 10 µM unless noted
About 83,000 compounds went through this panel and 20% of them were active in at least one assay; those are over-represented in the sample as a whole. Active and inactive are the calls of the source. Rule for the calls: active = growth percent below 10; inactive = the rest.
Metric: growth

{"Compound": "O=C(CSc1nc2ccc([N+](=O)[O-])cc2[nH]1)Nc1ccc(Br)cc1", "Study system": "COLO 205 colon", "Assay value": "41.2% (inactive)"}
{"Compound": "CC(=O)c1c(Nc2ccc(F)c(F)c2F)[nH]c2c(F)cc(F)cc2c1=O", "Study system": "COLO 205 colon", "Assay value": "-65% (active)"}
{"Compound": "O=C(Nc1ccc(F)cc1)Nc1ccccc1CNc1nc(Nc2ccc(OCCN3CCCC3)cc2)ncc1Cl", "Study system": "COLO 205 colon", "Assay value": "0.109% (active)"}
{"Compound": "CC(C)CCC[C@@H](C)C1CCC2C3CCC4=C/C(=N/OCCN(C)C)CC[C@]4(C)C3CC[C@@]21C (stereo partly drawn)", "Study system": "COLO 205 colon", "Assay value": "98% (inactive)"}
{"Compound": "NC(=O)c1ccc(NC(=O)c2oc3ccccc3c2-c2cnn(-c3ccccc3)c2)cc1", "Study system": "COLO 205 colon", "Assay value": "19.9% [50 µM] (inactive)"}
{"Compound": "O=C(Nc1cccnc1Nc1ccc(Cl)cc1)c1cn(Cc2ccc(F)cc2)nn1", "Study system": "COLO 205 colon", "Assay value": "124% (inactive)"}
{"Compound": "CN(C)c1ccc(/C=C2/C=C(c3ccccc3)OC2=O)cc1", "Study system": "COLO 205 colon", "Assay value": "99.3% (inactive)"}
{"Compound": "Cc1ccc(/C=C/C(=O)c2ccc(NC(=O)CSc3nc4c([nH]3)c(=O)n(C)c(=O)n4C)cc2)c(C)c1", "Study system": "COLO 205 colon", "Assay value": "84.8% (inactive)"}

---

Test system: CAKI-1 renal
Assay remarks: NCI-60 one-dose screen, 48 h (100 = growth as untreated, 0 = no growth, -100 = all killed)
Setup conditions: 10 µM unless noted
About 83,000 compounds went through this panel and 20% of them were active in at least one assay; those are over-represented in the sample as a whole.
Metric: growth (%)

{"Compound": "Clc1ccc(-c2cn3ccsc3n2)c(Cl)c1Cl", "Assay value": 71.8}
{"Compound": "Cc1ccc(C(=O)c2ccc(CC(=O)N/N=C/c3ccc(O)cc3O)n2C)cc1", "Assay value": 46.6}
{"Compound": "COc1cc(C(=O)c2c(-c3ccccc3)oc3c(OC)cccc23)cc(OC)c1O", "Assay value": 33.1}
{"Compound": "CC1CN=C(c2cccc(-c3ccc(-c4ccccc4)o3)c2)N1 (configuration not stated)", "Assay value": 5.69}
{"Compound": "Cn1cc(-c2nonc2-c2c[nH]c3ccc(F)cc23)c2cc(Br)ccc21", "Assay value": 25.3}
{"Compound": "CCOc1ccc(NC(=O)c2cc(OC)c(OC)c(OC)c2)cc1", "Assay value": 39.8}
{"Compound": "N#Cc1c(-c2ccccc2)nc2c(c(-c3ccccc3)nn2-c2ccccc2)c1-c1ccc(N2CCOCC2)cc1", "Assay value": 81.8}
{"Compound": "CCCn1c(=S)sc2c1nc(C)n1c(Nc3ccccc3)nnc21", "Assay value": 93.9}
{"Compound": "CCCCCCCCCCCCCCCCCCOc1ccccc1CC(=O)NCC[N+]1(C)CCOCC1", "Assay value": 98.6}
{"Compound": "CC1O[C@@H]2C[C@@](O)([C@H]1O)n1c3ccccc3c3c4c(c5c6ccccc6n2c5c31)C(=O)NC4=O (some centres not stated)", "Assay value": 28}
{"Compound": "COc1ccc2nc(Cl)c(/C=C/C(=O)c3ccc(NC(=O)CSc4nnc(-c5ccc(Cl)c(Cl)c5)n4-c4ccccc4)cc3)cc2c1", "Assay value": 77.6}
{"Compound": "Cc1ncc(C(=O)Nc2ccc(CN3CCN(C)CC3)c(C(F)(F)F)c2)cc1C#Cc1cnc(N)c2cnccc12", "Assay value": -91.5}
{"Compound": "O=C1NC(=Nc2ccc(O)cc2)S/C1=C\\c1cccs1", "Assay value": 40.9}
{"Compound": "COc1ccc(NC(=O)c2ccc(C(=O)Nc3ccc(OC)cc3OC)cc2)c(OC)c1", "Assay value": 68.1}
{"Compound": "COC(=O)c1nc(-c2ccccc2)oc1S(=O)(=O)N1CCC(C(N)=O)CC1", "Assay value": 49.5}
{"Compound": "CCN1C(=O)N(CC)C2C1NN=C1SCC(=O)N12 (configuration not stated)", "Assay value": 89.2}
{"Compound": "CCN=C1C=CC(=C(c2ccc(N(C)C)cc2)c2ccc(N(C)C)cc2)c2ccccc21", "Assay value": 0.419}

---

Test system: UACC-62 melanoma
Assay remarks: NCI-60 one-dose screen, 48 h (100 = growth as untreated, 0 = no growth, -100 = all killed)
Setup conditions: 10 µM unless noted
Compounds without any hit were thinned out: in the full panel of roughly 83,000, 20% have a hit.
If the reported growth equals or exceeds 70%, assign y. If not, assign n.

{"Record smiles": "Cc1ccc(-c2nc(C#N)c(S(=O)(=O)NCCO)o2)cc1", "Group": "n"}
{"Record smiles": "COc1ccc(-c2nnc(SCC(=O)Nc3ccc(/C(C)=N\\O)cc3)n2-c2ccccc2)cc1OC", "Group": "y"}
{"Record smiles": "CCOC(=O)c1c(NC(=O)c2ccc(OC)cc2)sc2c(CN(C)C)c(O)ccc12", "Group": "y"}
{"Record smiles": "COc1cc(Nc2ncccc2NC(=O)c2cn(Cc3cccc(Oc4ccccc4)c3)nn2)cc(OC)c1", "Group": "n"}
{"Record smiles": "Cc1cc2nc3c4ccccc4n(CCN(C)C)c3nc2cc1C", "Group": "n"}
{"Record smiles": "CCNCc1ccc(O)c2ncccc12", "Group": "n"}

---

Tested on: RPMI-8226 leukemia
Assay remarks: NCI-60 one-dose screen, 48 h
Setup conditions: 10 µM unless noted
Compounds without any hit were thinned out: in the full panel of roughly 83,000, 20% have a hit. Activity calls are given as the source filed them. How the source made its calls: active means growth percent below 10; inactive means the rest.
Outcome codes: 1 (active), 0 (inactive)

{"Compound": "C=C1C(=O)O[C@H]2[C@H]1CC/C(COC(=O)/C=C\\C(=O)NCc1ccc(Cn3c(=O)sn(-c4ccccc4)c3=O)cc1)=C\\CC[C@@]1(C)O[C@@H]21", "Group": 0}
{"Compound": "N#CC(C#N)N=Nc1ccc(Cl)cc1Cl", "Group": 0}
{"Compound": "Fc1ccc2c(c1)c(-c1nc(-c3c[nH]c4ncccc34)cs1)cn2CCCN1CCOCC1", "Group": 0}
{"Compound": "O=C1NC(=O)c2c1c1c3ccccc3[nH]c1c1oc3ccc(F)cc3c21", "Group": 0}
{"Compound": "O=C(N/N=C/c1ccc(Cl)cc1Cl)c1ccc2nc(-c3ccc(Cl)cc3)[nH]c2c1", "Group": 1}
{"Compound": "COc1ccc(C2=Nc3c(N)ncnc3NC(c3cccc(Nc4ccnc5cc(C(F)(F)F)ccc45)c3)C2)cc1 (stereo not drawn)", "Group": 0}
{"Compound": "CC1COCC(C)N1C1=C(Cl)C(=O)c2ccccc2C1=O (stereo not drawn)", "Group": 0}
{"Compound": "CC(=O)c1c(Nc2ccc(F)c(F)c2F)[nH]c2c(F)cc(F)cc2c1=O", "Group": 1}

---

System: SF-268 CNS
Assay remarks: NCI-60 one-dose screen, 48 h (100 = growth as untreated, 0 = no growth, -100 = all killed)
Setup conditions: 10 µM unless noted
The panel holds about 83,000 compounds, 20% with a hit somewhere; the sample as a whole holds those more often.

{"Record smiles": "COc1cc2c(c(OC)c1OC)C(=O)N[C@@H]1[C@@H](O)[C@@H](O)[C@H](O)C[C@@H]21", "growth / %": 103}
{"Record smiles": "CCCCCCNc1nc(NCCCCCC)c2[nH]c(NCCCCCC)nc2n1", "growth / %": 52.5}
{"Record smiles": "O=C1Nc2ccc(F)cc2/C1=C\\c1nc(-c2ccccc2F)n2ccccc12", "growth / %": 85.1}
{"Record smiles": "COc1cc(-c2nc3occn3c2-c2ccnc(NCCCNS(=O)(=O)c3ccccc3)n2)ccc1F", "growth / %": 52.8}

---

growth values for the compounds below.
Tested on: SK-OV-3 ovarian
Assay remarks: NCI-60 one-dose screen, 48 h (100 = growth as untreated, 0 = no growth, -100 = all killed)
Setup conditions: 10 µM unless noted
The panel holds about 83,000 compounds, 20% with a hit somewhere; the sample as a whole holds those more often.

{"Compound": "CC12CCC(/C(=C/NNc3ccc([N+](=O)[O-])cc3[N+](=O)[O-])C1=O)C2(C)C (centres undefined)", "growth, %": 89.6}
{"Compound": "C[C@H]1[C@H](C)CC[C@]2(C(=O)O)CC[C@]3(C)C(=CC[C@@H]4[C@@]5(C)C[C@@H](Cc6cn([C@@H]7O[C@H](CO)[C@@H](O)[C@H](O)[C@H]7O)nn6)[C@H](O)C(C)(C)[C@@H]5CC[C@]43C)[C@H]12", "growth, %": 88.5}
{"Compound": "CC(C)[C@@]12C[C@@H](OC(=O)COC(=O)c3ccccc3)[C@@](C)(O1)[C@@H]1CC[C@@H](C)[C@H]1[C@@H]2OC(=O)/C=C/c1ccccc1", "growth, %": 88.1}
{"Compound": "CCN1CCN(CC(=O)Nc2nc3ccc(NCc4ccc(Br)cc4)cc3s2)CC1", "growth, %": 90}
